Experiment: Half life in Sprague-Dawley rat at 5 mg/kg, po by LC-MS/MS analysis
Type: ADME, organism-based
Conditions: in vivo
MEASURE: half-life (h)

[a] Cc1n[nH]c2cc(OCCNC[C@H](O)c3cccc(NS(=O)(=O)C4CCC4)c3)ccc12
[b] CC(C)c1n[nH]c2cc(OCCNC[C@H](O)c3cccc(NS(C)(=O)=O)c3)ccc12
(Q) Select one: a or b . Criterion: greater recorded half-life. To answer, give the label that identifies your chosen option.
(A) a

* * *

Organism: Homo sapiens
Experiment: Selectivity ratio of EC50 for recombinant human alpha1A adrenergic receptor to EC50 for recombinant human beta3 adrenergic receptor
MEASURE: Ratio EC50

GIVEN SMILES: CC(C)c1n[nH]c2cc(OCCNC[C@H](O)c3cccc(NS(C)(=O)=O)c3)ccc12
Ratio EC50: > 769

(Q) Return value of Ratio EC50 for input `Cc1n[nH]c2cc(OCCNC[C@H](O)c3cccc(NS(=O)(=O)C4CCC4)c3)ccc12` , no commentary.
(A) > 556

(Q) Return value of Ratio EC50 for input `Cc1n[nH]c2cc(OCCNC[C@H](O)c3cccc(NS(=O)(=O)c4ccccc4)c3)ccc12` , no commentary.
(A) > 2560

(Q) Return value of Ratio EC50 for input `Cc1n[nH]c2cc(OCCNC[C@H](O)c3cccc(NS(=O)(=O)C4CCCC4)c3)ccc12` , no commentary.
(A) > 32

(Q) Return value of Ratio EC50 for input `CS(=O)(=O)Nc1cccc([C@@H](O)CNCCOc2ccc3c(C4CCC4)n[nH]c3c2)c1` , no commentary.
(A) > 151
